Reported inhibition at 0.67 µM values for the following compounds.
molecular target: full-length human RORγt (Homo sapiens (Human), UniProt P51449); test: RORγt (full-length human) reporter assay, conditions A or B, HEK293T cells; format: cell-based; details: HEK-293T; 0.67 μM compound concentration (footnote ****); read-out: RORγt (FL) Reporter Assay A or B, % inhibition
Sequence (P51449 other isoform, or with tags, fused parts or gaps): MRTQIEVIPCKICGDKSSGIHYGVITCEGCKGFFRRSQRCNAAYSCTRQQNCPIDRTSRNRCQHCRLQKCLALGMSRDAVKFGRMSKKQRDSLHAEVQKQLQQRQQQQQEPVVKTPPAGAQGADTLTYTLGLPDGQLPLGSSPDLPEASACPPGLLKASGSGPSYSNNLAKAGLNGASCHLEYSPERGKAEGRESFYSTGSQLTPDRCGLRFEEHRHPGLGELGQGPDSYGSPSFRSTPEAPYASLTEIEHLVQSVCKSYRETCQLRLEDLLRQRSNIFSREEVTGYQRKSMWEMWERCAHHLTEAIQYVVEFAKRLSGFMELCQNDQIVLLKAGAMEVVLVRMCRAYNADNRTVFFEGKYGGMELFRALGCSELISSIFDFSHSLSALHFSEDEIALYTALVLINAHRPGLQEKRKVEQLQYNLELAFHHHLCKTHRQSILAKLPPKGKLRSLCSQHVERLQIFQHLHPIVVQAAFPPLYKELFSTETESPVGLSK
A complete answer gives the number and then names the unit.

>>> result("CCn1nc(C(=O)NC[C@]2(O)CC[C@@H](S(C)(=O)=O)CC2)c(Cl)c1-c1ccc(CC(C)C(F)(F)F)cc1OC(F)(F)F (stereo partly drawn) [Example 191]")
"69%"
>>> result("CCn1nc(C(=O)NC[C@H]2CC[C@H](S(C)(=O)=O)CC2)c(Cl)c1-c1c(F)cc(CC(C)C(F)(F)F)cc1F (stereo partly drawn) [Example 197]")
"70%"

As a next step, examine the compound that follows.
Need inhibition at 0.67 µM, item CCCn1nc(C(=O)NC[C@H]2CC[C@H](S(C)(=O)=O)CC2)c(Cl)c1-c1ccc(C[C@H](C)C(F)(F)F)cc1OC (single isomer, unassigned) [Example 41]
98%

====

biological target: human RORγt ligand binding domain (RORγt LBD) (Homo sapiens (Human), UniProt P51449); assay: RORγt ThermoFluor® assay (thermal shift binding); settings: ThermoFluor® Assay, Kd
Sequence (P51449 other isoform, or with tags, fused parts or gaps): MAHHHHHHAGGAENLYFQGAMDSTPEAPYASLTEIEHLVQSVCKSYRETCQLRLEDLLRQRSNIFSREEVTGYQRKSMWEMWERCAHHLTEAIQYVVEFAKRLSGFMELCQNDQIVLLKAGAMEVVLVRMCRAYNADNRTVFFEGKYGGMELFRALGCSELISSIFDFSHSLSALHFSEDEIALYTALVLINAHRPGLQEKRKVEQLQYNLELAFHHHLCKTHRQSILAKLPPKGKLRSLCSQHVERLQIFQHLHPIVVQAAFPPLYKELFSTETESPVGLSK
Where a name gives a salt, the structure may show the parent alone.
parameter: log10(Kd) (log10 of the value in pM)
In our notation, the value equals log10 of Kd in pM.

Reference set (4 entries):
>>> numeric_value("CCn1nc(C(=O)NC[C@H]2CC[C@H](S(C)(=O)=O)CN2)c(Cl)c1-c1ccc(CC(C)(C)C(F)(F)F)cc1OC(F)F (stereo in doubt) [Example 8, Hydrobromide]")
2.86
>>> numeric_value("CCn1nc(C(=O)NC[C@H]2CC[C@H](S(C)(=O)=O)C[C@@H]2O)c(Cl)c1-c1ccc(CC(C)(C)C(F)(F)F)cc1OC(F)F (single isomer, unassigned)")
2.57
>>> numeric_value("COc1cc(N[C@H](C)C(F)(F)F)ccc1-c1c(Cl)c(C(=O)NC[C@H]2CC[C@H](S(C)(=O)=O)CC2)nn1CCC#N")
4.86
>>> numeric_value("CCn1nc(C(=O)NC[C@@]2(O)CC[C@H](S(C)(=O)=O)C[C@@H]2O)c(C)c1-c1ccc(C[C@@H](C)C(F)(F)F)cc1OC(F)F (stereo in doubt)")
3.76

Proceeding to the next molecule to report its log10(Kd).
Quick one: log10(Kd) of CCCn1nc(C(=O)NC[C@H]2CC[C@H](S(C)(=O)=O)CC2)c(Cl)c1-c1ccc(C[C@H](C)C(F)(F)F)cc1OC (single isomer, unassigned) ?
2.45

====

system: IL-17 production by CD4 T cells under conditions which favor Th17 differentiation; experiment: Human Th17 assay (IL-17 production by CD4 T cells); assay type: cell-based; conditions: read-out: Human Th17 Assay, IC50
parameter: pIC50
Keep in mind that pIC50 stands for -log10 of concentration in molar terms.

Can you share its pIC50? I mean this molecule: CCn1nc(C(=O)NC[C@H]2CC[C@H](S(C)(=O)=O)CC2)c(Cl)c1-c1ccc(CCC(F)(F)F)cc1OC(F)F [Example 222]
7.96

====

biological target: full-length human RORγt (Homo sapiens (Human), UniProt P51449); assay: RORγt (full-length human) reporter assay, conditions A or B, HEK293T cells; assay type: cell-based; details: RORγt (FL) Reporter Assay A or B, IC50, HEK293T cells
parameter: IC50
The answer should read as a number with its unit following.

Please review the entries below; each comes with its answer.
>>> result("CCn1nc(C(=O)NC[C@H]2CC[C@H](S(C)(=O)=O)CC2)c(C)c1-c1ccc(CCCC(F)(F)F)cc1OC(F)F [Example 78]")
"12 nM"
>>> result("CCn1nc(C(=O)NC[C@H]2CC[C@H](S(C)(=O)=O)CC2)c(C)c1-c1ccc(N[C@H](C)C(F)(F)F)cc1OC [Example 228]")
"29 nM"
>>> result("CCn1nc(C(=O)NC[C@H]2CC[C@H](S(C)(=O)=O)CC2)c(Cl)c1-c1ccc(C[C@H](C)C(F)(F)F)cc1OC (single isomer, unassigned) [Example 3]")
"9 nM"

Requested field: IC50. Item: CCn1nc(C(=O)NC[C@]2(O)CC[C@@H](S(C)(=O)=O)CC2)c(Cl)c1-c1ccc(CC(C)(C)C(F)(F)F)cc1OC(F)F [Example 132]
8.1 nM

Data request, read-out IC50, for CCn1nc(C(=O)NC[C@H]2CC[C@H](S(C)(=O)=O)CC2)c(Cl)c1-c1ccc(CCCC(F)(F)F)cc1OC(F)F [Example 76]
2.1 nM
